// reported koff per item
experimentalTarget: T1, 食蟹猴CD38胞外段Flag标签蛋白 cyno-CD38-ECD-Flag (cynomolgus monkey, UniProt Q5VAN0 44-301)
T1 construct: range 44-301; No linker between CD38 and the tag is stated; also called cyno-CD38-Flag
T1 sequence: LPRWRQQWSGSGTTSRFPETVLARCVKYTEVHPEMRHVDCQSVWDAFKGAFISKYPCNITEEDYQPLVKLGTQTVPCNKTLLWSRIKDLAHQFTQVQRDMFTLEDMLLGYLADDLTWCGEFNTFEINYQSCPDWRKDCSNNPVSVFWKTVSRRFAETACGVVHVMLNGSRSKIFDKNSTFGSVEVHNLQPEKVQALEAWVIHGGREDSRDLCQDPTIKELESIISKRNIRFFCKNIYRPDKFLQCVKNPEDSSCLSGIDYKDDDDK
assayRemarks: SPR, Biacore T200; antibody captured on Protein A CM5 chip, cyno-CD38-Flag as analyte
Express it in s⁻¹; write the number only.

- binder: "人源化抗人CD38单克隆抗体105H (antibody, human IgG1, kappa, V domains shown, Humanized IgG1; also called 105-Humanization; 105号抗体的人源化抗体) VH: QVQLVQSGAEVKKPGASVKVSCKASGYTFTSYWMHWVRQAPGQGLEWIGHINPSSGYSEYSQKFKDRATLTADKSTSTAYMELSSLRSEDTAVYYCEIYYYVSRYVGDSWGQGTLVTVSS VL: DIQMTQSPSSLSASVGDRVTITCRASQEISGYLSWLQQKPGKTIKRLIYAASTLDSGVPSRFSGSRSGSDFTLTISSLQPEDFATYYCLQYDSYPLTFGQGTKVEIKR"
  koff [s⁻¹]: 0.000208
- binder: "人源化抗人CD38单克隆抗体116H (antibody, human IgG1, kappa, V domains shown, also called 116号抗体的人源化抗体) VH: QVTLKESGPALVKPTQTLTLTCTLSGFSLSTSRMGVGWIRQPPGKGLEWLAHIWWDDDKRYNPALKSRLTISKDTSSNQVFLKIASVDKEDTATYYCGRIEVGRGAWFAYWGQGTLVTVSS VL: EIVLTQSPATLSLSPGERVSVTCKASQDVVTTVAWYQQKPGQAPRTLIYSASYRYSGVPARFSGSGSGTDFTLTISSLEPEDFAVYYCQQYYTYPFTFGQGTKVEIKR"
  koff [s⁻¹]: 0.000102
- binder: "人源化抗人CD38单克隆抗体57H (antibody, human IgG1, kappa, V domains shown, also called 57号抗体的人源化抗体) VH: EVQLVESGGGLVQPGGSLRLSCAASGFTFSSFGMHWVRQAPGKGLEWVAYIGGDSNIIYYADTVKGRFTISRDNSKNTLYLQMNSLRAEDTAVYYCAKSHDYTMDYWGQGTLVTVSS VL: DIVMTQSPSSLAVSLGERVTITCKSSQSLLYSTNQKNYLAWFQQKPGQSPKLLIYWASTRESGVPDRFSGSGSGTDFTLTISSLQAEDVAVYYCQRYYNYPYTFGQGTKVEIKR"
  koff [s⁻¹]: "9.2e-05"

Request the reported koff associated with 人源化抗人CD38单克隆抗体145H (antibody, human IgG1, kappa, V domains shown, also called 145号抗体的人源化抗体) VH: QVQLVQSGAEVKKPGASVKVSCKASGYTFTNYLIDWVRQAPGQGLEWIGLINPGSGSTKYNEKFKGRVTLTADKSTSTAYMELSSLRSEDTAVYYCAKTGTLPYWGQGTLVTVSS VL: DIQMTQSPSSLSASVGDRVTITCKASQNVGTSVAWYQQKPGKAPKLLIYSTSYRSSGVPSRFSGSGSGTDFTLTISSLQPEDFATYYCQQYGSYPLTFGQGTKVEIKR
0.00393
